TEST TARGET: Luciferin 4-monooxygenase (Photinus pyralis)
PROTOCOL NOTES: qHTS Assay for Inhibitors of Firefly Luciferase; note: nearly all actives have a fitted effect of over 40% in size
REPORTED CONDITIONS: purified firefly luciferase, luminescence, 8 min; series mostly up to 57.1 µM
The campaign covered roughly 72,000 compounds. About 1,600 (2.2%) were called active. Calls come from the whole dose curve; as a rule, active = well fitted inhibition curve with a large enough effect; inconclusive = small, poorly fitted or top-dose-only effect; inactive = flat fitted curve, though single readings scatter. This excerpt belongs to a sample that is enriched for actives.
Tick one outcome: active, inactive

These recorded examples may help you get a feel for the data.
| COMPOUND | GROUP |
| --- | --- |
| O=S1(=O)CCN2C(=N1)SC1=C2CCN(Cc2ccccc2)C1 | inactive |
| CCCOC(=O)Nc1ccccc1C(N)=O | inactive |
| NC(=O)c1ccccc1NC(=O)c1ccccc1F | inactive |
| CCOC(=O)C1C(=O)NC(N2CCN(c3ccccc3)CC2)=NC1c1ccco1 (stereo unspecified) | inactive |
| CCCOc1ccc(/C(O)=C2/C(=O)C(=O)N(CCN(C)C)C2c2ccc(OC)c(OC)c2)cc1 (stereo unspecified) | inactive |

Now turn to the next compound.
-- ask Please share the test call associated with `COc1cccc(OCC(=O)Nc2ccccc2C(N)=O)c1` .
-- reply active
